- ASSAY_EXPLANATION: yeast display, Sf9 membrane polyspecificity reagent, FACS + sequencing; frameworks hold sequencing errors
RECORDED_METRIC: polyreactivity (PSR sort gate)

Known polyreactivity (PSR sort gate) results, listed for orientation:
Documented polyreactivity (PSR sort gate) of QVQLVESGGGLVQAGGSLRLSCAASGFIFHRYAMGWYRQAPGKERELVAAITGRGSSTYYADSVKGRFTISRDNAKNTVYLQMNCLKPEDTGVYYCNAYRYQVYDTGWFGYWGQGTQVTVSS : high polyreactivity

Documented polyreactivity (PSR sort gate) of QVQLVESGGGLVQAGGSLRLSCAASGRIFVVYAMGWYRQAPGTETELVANITISGGRTYYADSVKGRFTISRDNAKNTVYVQMNSLKPEDTAVYYCAATSGALYYGYEYWGQGTQVTVSS : low polyreactivity

Documented polyreactivity (PSR sort gate) of QVQLVESGGGLVQAGGSLRLSCAASGYILPKNTMGWYRQAPGKERELVAAISWSGGSTFYADSVKGRFTISRDNAKNTVYLQMNSLKPEDTAVYYCAADRYWSWYYRYDYWGQGTQVTVSS : low polyreactivity

Documented polyreactivity (PSR sort gate) of QVQLVESGGGLVQEGGSLRLRCAASGRIFYNYAMGCYRQAPGKERELVAAITGRGGRTYYADSVKGRFTISRDNAKNTVYLQINSLKPEDTAVYYCSVRAGTAGYPKYDYWGPGTQVTVSS : high polyreactivity

Continuing:
Documented polyreactivity (PSR sort gate) of QVQLVESGGGLVQAGGSLRLSCAASGSIRGYAMGWYRQAPGKERELVAAISWRGGSTYYADSVKGRFTISRDNAKNTVYLQMNSLKPEDTAVYYCAAADGIIESDYWGQGTQVTVSS : low polyreactivity

Documented polyreactivity (PSR sort gate) of QVQLVESGGGLVQAGGSLRLSCAASGSTYYNAMGWYRQAPRKERELVAAIRFRSGSTYYADSVKGRFTISRDNAKITVYFQMNSLKPEDTAVYYCAADNKRSWRYAYNYWGQGTQVTVSS : high polyreactivity

Documented polyreactivity (PSR sort gate) of QVQLVESGVGLVQAGGSLRLSCAPSGSIFGRNAMGWYRQAPGKERELVAAISGGGSTNYSDSVKGRFTISRDNAKNTVYLQMNSLKPEDTAVYYCNTYPGSRHWWYDYWGQGTQGTVSS : high polyreactivity

Documented polyreactivity (PSR sort gate) of QVQLVESGGGLVQAGGSLRLSCAASGFTFWGYGMGWYRQAPGKERELVAAISGSGGSTYYADSVKGRFTISRDNAKNTVFLQMNSLKRKIPRSITALLFTVNGGGSRSHDYWAQGTQVTVSS : low polyreactivity

Documented polyreactivity (PSR sort gate) of QVQLVESGGGLVQAGGSLRLSCADSGSIFVKNAMGWYRQAPGKERELVATISTGGRTYYADSVKGRFTISLDNAKNTVYLQMNSLKPEDTAVYYCATDFYPRYLLRTYRPYYYWGQGTQVTVSS : low polyreactivity

Documented polyreactivity (PSR sort gate) of QVQLVESGGGLVQAGGSLRLSCAASGIIFRRYAMGWYRQAPGKERELVAAITGSGGSTYYADSVKGRFTISRDNAKNTVYLQMNSLKPEDTAVYYCAAKGYPSRYSYGWYNYWGQGTQVTVSS : high polyreactivity

Documented polyreactivity (PSR sort gate) of QVQLVESGGGLDQAGGSLRLSCAASGYTFGRNAMGWYRQAPGKERELVATISQRGGSTYYADSVKGRFTISRDNANNTVYLQMNSLKPEDTAVYYCAAGPIYRYRRYYYWGQGTQVTVSS : high polyreactivity

----------
- ASSAY_EXPLANATION: yeast display, Sf9 membrane polyspecificity reagent, FACS + sequencing; frameworks hold sequencing errors
RECORDED_METRIC: polyreactivity (PSR sort gate)

Known polyreactivity (PSR sort gate) results, listed for orientation:
Documented polyreactivity (PSR sort gate) of QVQLVESGGGIFQAGGSLRLSCAASGRIYNYYAMGWTRQAPGQEREFVAAITRSGGRPYYADSVKGRFTISRDKGKNTVYLLMNSLKPEDTAVYYFAAPFGTYAYDYWGQGTLVTVSS : high polyreactivity

Documented polyreactivity (PSR sort gate) of QVQLVESGGGLVQAGGSLRLSCAASGRTFRINTMGWYRQAPGKERELVATITGSGGSTYYADSVKGRFTISRDNANNTVYLQMNSLKPEDTAVYYCAAFGDQNEYDYWGQGTQVTVSS : low polyreactivity

Documented polyreactivity (PSR sort gate) of QVQLVESGGGLVQAGGSLRLSCAASGLTFYTYAMGWYRQAPGKERELVAAISSGGSTNYADSVKGRFTISRDNAKNTVYLQMNSLKPEDTAVYYCAADPSYYTYFSFDLSESDYWGLGTQVTVSS : low polyreactivity

Documented polyreactivity (PSR sort gate) of QVQLVESGGGLVQAGGSLRLSSASSGRTLVPYAMGWYRQAPGKERELVAAISSGGYTNYADSVKGRFTISRDNAKNTVYLQMNSLKPEDTAVYYCAADYPVRSYDYWGQGTQVTVSS : low polyreactivity

Continuing:
Documented polyreactivity (PSR sort gate) of QVQLVESGGGLFQAGGSLRLSCAASGRTLRRNALGWYRQAPWKERELVAAISTGGGSTYYADSVKGRFTISRDYAKKTVYLQINSLNPEDSAVYYCAAVYSQSTKRYELYYWGQGTQVTVSS : high polyreactivity

----------
- ASSAY_EXPLANATION: yeast display, Sf9 membrane polyspecificity reagent, FACS + sequencing; frameworks hold sequencing errors
RECORDED_METRIC: polyreactivity (PSR sort gate)

Documented polyreactivity (PSR sort gate) of QVQLVESGGGLVQAGGSLRLSCAASGRIFYPYAMGWYRQAPGKERDLVAAIRRSGVDTYYADSVKGRFTISRDNAKNTVYLQMNSLKPEDTAVYYCNKDGGGDSYWYDYWGQGTQVTVSS : low polyreactivity

Documented polyreactivity (PSR sort gate) of QVQLVESGGGLVQAGGSLRLSCAASGIIFPTYVMGWYRQAPGKERELVAVISWSGASTYYADSVKGRFTISRDNAKNSVYLQMNSLKPEDTAVYYCAADWWRVEMDYWGQGTQVTVSS : low polyreactivity

Documented polyreactivity (PSR sort gate) of QVQLEESGGGIVQAGGSLRLSCAASGRIFRIYAMGWYRKAPGKERELVARITYSGGSTYYADSVKGRFTISRDKAKNTVYLQMNSLKPEDTAVFYCAADWLFYQYGYWGQGTQVTVSS : low polyreactivity

----------
- ASSAY_EXPLANATION: yeast display, Sf9 membrane polyspecificity reagent, FACS + sequencing; frameworks hold sequencing errors
RECORDED_METRIC: polyreactivity (PSR sort gate)

Documented polyreactivity (PSR sort gate) of QVQLVESGGGLVQAGGSLRLSCAASGRTFSTYAMGWYRQAPGKERELVAGISRGGGSTYYADSVKGRFTISRDNAKNTVYLQMNSLKPEDTAVYYCAAKRPQYYVQYGYWGQGTQVTVSS : high polyreactivity

Documented polyreactivity (PSR sort gate) of QVQLVESGGGLVQAGGSLRLSCAASASISYYYAMGWYRQETGKERELVAAITRTGTTNYADSVKGRFTISRDNAKNTVYLQMNSLKPEDTAVYYCAKRSTGRLQSYNYRGQGTQVTVSS : low polyreactivity

Documented polyreactivity (PSR sort gate) of QVQLVESGGGLVQAGGSLRLSCAASGSIFDPYAMGWYRQAPGKEREFVAALSWSGGSTYYADSVKGRFTISRDNAKNTVYLQMNSLKPEDTAVYYCATDWGDPYGYDYWGQGTQVTVSS : low polyreactivity

Documented polyreactivity (PSR sort gate) of QVQLVESGGGLVQAGGSLRLSCAASGFTFWTYAMGWYRQAPGKERELVAAIDSGGSTYYADSVKGRFTISRDNAKNTVYLQMHSLKPEDTAVYYCNAGPSVTSGYDYDYWGQGTQVTVSS : low polyreactivity

Documented polyreactivity (PSR sort gate) of QVQLVESGGGLVQAGGSLRLSCAASGSTFSANAMGWYRQAPGKERELVAGISRSGGRTYYADSVKGRFTISRDNEMNTVYLQMNSLKPEDTAVYYCNARRRGAGGYDYWGQGTQVTVSS : high polyreactivity

Continuing:
Documented polyreactivity (PSR sort gate) of QVQLVESGGGLVQAGGSLRLSCAASGSIFGTYAKGWYRQAPGKERELVADISLSGGSTYYADSVKGRFTISRDTAKKSVYLQMNSLKPEDNAVYYCNAESTAYGYVAVYRYDYWGQGTQVTVSS : low polyreactivity

Documented polyreactivity (PSR sort gate) of QVQLVESGGGLVQAGGSLRLSCAASGRTFLSYAMGWSRQAPVTERELVATITRRGGSTYYADSVKGRFTISRDNAKNTVYLQMNSLKPEDTAVSYCAAYYRQYSYSEFGYWGQGTQVTVSS : high polyreactivity

Documented polyreactivity (PSR sort gate) of QDQLVESRGGLVQAGGSLRVSCAASGLSFGYYAMGWYRQATGKERELVAAISSSGVNTYYADSVKGRFTISRDNPKNTVYLQMNSLIPEDTAVYYCNTVPKPWYSWKYAYDYWGQGTQVTVSS : high polyreactivity

Documented polyreactivity (PSR sort gate) of QVQLVESGGGLGQAGGSLRLSCAASGLTFTKNVMGWSSQAPGKERELVAVISRSGGSTYYADSVKGRFTISRDNAKNTVYLQMISLKPEDTAVYYCNVKGPGPSRGNYWGQGTQVTVSS : low polyreactivity

Documented polyreactivity (PSR sort gate) of QVQLVESGGGLVQAGGILRLICAASGSTFSTYAMGWYRPAPGKERELVAAIRFSGGTTYYADSVKGRFTISRDNAKNSVYLQMYCLKPEDTAVYYCAAVYISRNFFGRARGDYWGQGTEVTVSS : low polyreactivity

Documented polyreactivity (PSR sort gate) of QVQLVESGGGLVQAGGSLRLSCAASGRTLGQNVMGWYRQAPGKERELVAAISSNTAGNTYYADSVKGRFTISRDNAKNTVYLQMNSLKPEDTAVYYCAIVDSFEAILDYWGQGTQVTVSS : low polyreactivity
